# growth annotations
Tested on: 786-0 renal
Assay: NCI-60 one-dose screen, 48 h (100 = growth as untreated, 0 = no growth, -100 = all killed)
Conditions: 10 µM
Protocol: Cells are grown in 96 well plates and exposed to the test compound for 48 hours. Compounds are tested at a single concentration, which is 10^-5 M for most compounds. The reported endpoint is percent growth (GI% or GIPRCNT), where numbers from 0 - 100% represent growth inhibition, and numbers from -100% - 0 represent cell death. For example, a value of 40 represents 60% growth inhibition. A value of 0 means no net growth occurred over the course of the experiment. […]
The panel holds about 83,000 compounds, 20% with a hit somewhere; the sample as a whole holds those more often. Calls of active or inactive are those of the source. Rule for the calls: active = growth percent below 10; inactive = the rest.
measurement_type: growth

>>> val("Cc1ccc2nc(-c3ccc(OCC(=O)N=Nc4c(O)[nH]c5ccccc45)cc3)[nH]c2c1")
"36.1% (inactive)"
>>> val("NC1CCC(Nc2nc(NCc3ccc(-c4ccccc4O)nc3)c3ncn(C4CCCC4)c3n2)CC1 (stereo unspecified)")
"-38.3% (active)"
>>> val("CC1(C)Cc2c(cn(Cc3ccccc3)c2-c2ccccc2)-c2oncc21")
"97.5% (inactive)"
>>> val("COc1ccc(-c2nc(-c3nc4ccc(OC)cc4[nH]3)c3ccccn23)cc1")
"84.4% (inactive)"
>>> val("Cc1ccc([P+](Cc2ccccc2)(c2ccccc2)c2ccccc2)cc1")
"21.3% (inactive)"
>>> val("C/C(=N\\NC(=S)N1CCCC1)c1ccccn1")
"20% (inactive)"
>>> val("O=C1/C(=C/c2ccc(O)cc2)Cc2ccc(Cl)cc21")
"92.2% (inactive)"
>>> val("CCCCCCCCCCCCc1ccc(C(=O)/C=C/C(=O)O)cc1")
"-3.51% (active)"
>>> val("CCc1ccc(Nc2cc(C)nc3nc(C)nn23)cc1")
"34.8% (inactive)"
>>> val("N#CC1C=Cc2c(ccc3ccccc23)N1C(=O)c1ccccc1 (stereo unspecified)")
"34% (inactive)"
>>> val("O=c1c2cccc3c(Nc4ccc(Br)cn4)ccc(c32)c2nc3ccccc3n12")
"96.9% (inactive)"

====

tested on: HOP-62 NSCLC; test: NCI-60 one-dose screen, 48 h (100 = growth as untreated, 0 = no growth, -100 = all killed); settings: 10 µM
The panel holds about 83,000 compounds, 20% with a hit somewhere; the sample as a whole holds those more often.
measurement_type: growth (%)

>>> val("COc1c(-c2c3sc(=O)[nH]c3nc3c2c(=O)[nH]n3C(C)C)cc2c(c1OC)OCO2")
94.5
>>> val("COc1cc(-c2c(C#N)c(N)n3c(nc4ccccc43)c2C#N)cc(Br)c1OC")
74.5
>>> val("O=S(=O)(NCCO)c1ccc(OCCOc2ccc(S(=O)(=O)NCCO)cc2)cc1")
90.7
>>> val("FC(F)(F)c1ccc(-c2ncc(-c3ccc(C(F)(F)F)cc3)c(NCc3cc(C(F)(F)F)cc(C(F)(F)F)c3)n2)cc1")
62.6
>>> val("COc1cc(-c2nc(-c3nnc(-c4cccnc4)o3)c3ccccn23)cc(OC)c1OC")
102
>>> val("Cc1cc(Cl)ccc1Nc1nc(C(F)(F)F)ccc1C(=O)N/N=C/c1ccccc1Cl")
-6.31
>>> val("O=S(=O)(NC1c2ccccc2Oc2ccccc21)c1ccccc1")
90.1
>>> val("N=C(N)c1ccc(-c2ccc(-c3ccccc3)s2)cc1F")
-83
>>> val("COC(=O)c1ccc(Cn2ccc(=O)[nH]c2=O)cc1")
106
>>> val("CC(=O)n1nc(C(=O)OC(C)(C)C)c2cc(F)c(F)cc21")
99
